# assay-notes: Inhibition of Escherichia coli Penicillin-binding protein 3
The entries below come with measured IC50 values attached.

{"compound": "C[C@H]1[C@H](NC(=O)/C(=N\\OC(C)(C)C(=O)O)c2csc(N)n2)C(=O)N1S(=O)(=O)O [AZTREONAM]", "IC50 / nM": 23}
{"compound": "CC1(C)[C@H](NC(=O)/C(=N\\OCc2cc(=O)c(O)cn2O)c2csc(N)n2)C(=O)N1OS(=O)(=O)O (stereo in doubt)", "IC50 / nM": 48}

###

# Tested on: Escherichia coli
# assay-notes: Antimicrobial activity against Escherichia coli by broth dilution method
# Format: functional
The entries below come with measured MIC50 values attached.
metric: MIC50 (µg/mL)

{"compound": "C[C@H]1[C@H](NC(=O)/C(=N\\OC(C)(C)C(=O)O)c2csc(N)n2)C(=O)N1S(=O)(=O)O [AZTREONAM]", "target-or-system": "Escherichia coli", "units-symbol": "µg/mL", "prefix-operator": ">", "experimental-value": 32}
{"compound": "C[C@@H](O)[C@H]1C(=O)N2C(C(=O)O)=C(SCCNC=N)C[C@H]12 [IMIPENEM ANHYDROUS]", "target-or-system": "Escherichia coli", "units-symbol": "µg/mL", "prefix-operator": "=", "experimental-value": 0.25}
{"compound": "CC1(C)[C@H](NC(=O)/C(=N\\OCc2cc(=O)c(O)cn2O)c2csc(N)n2)C(=O)N1OS(=O)(=O)O (stereo in doubt)", "target-or-system": "Escherichia coli", "units-symbol": "µg/mL", "prefix-operator": "=", "experimental-value": 1}
{"compound": "CO/N=C(\\C(=O)N[C@@H]1C(=O)N2C(C(=O)[O-])=C(C[N+]3(C)CCCC3)CS[C@H]12)c1csc(N)n1", "target-or-system": "Escherichia coli", "units-symbol": "µg/mL", "prefix-operator": "=", "experimental-value": 8}
{"compound": "CC(C)(O/N=C(\\C(=O)N[C@@H]1C(=O)N2C(C(=O)[O-])=C(C[n+]3ccccc3)CS[C@H]12)c1csc(N)n1)C(=O)O [CEFTAZIDIME]", "target-or-system": "Escherichia coli", "units-symbol": "µg/mL", "prefix-operator": "=", "experimental-value": 32}
{"compound": "C[C@@H](O)[C@H]1C(=O)N2C(C(=O)O)=C(S[C@@H]3CN[C@H](C(=O)N(C)C)C3)[C@H](C)[C@H]12 [MEROPENEM]", "target-or-system": "Escherichia coli", "units-symbol": "µg/mL", "prefix-operator": "≤", "experimental-value": 0.06}

###

The entries below come with measured MIC50 values attached.
# Test system: Burkholderia sp.
# assay-notes: Antimicrobial activity against Burkholderia sp. by broth dilution method
# Format: functional

{"compound": "C[C@@H](O)[C@H]1C(=O)N2C(C(=O)O)=C(SCCNC=N)C[C@H]12 [IMIPENEM ANHYDROUS]", "target-or-system": "Burkholderia sp.", "prefix-operator": "=", "MIC50 (µg/mL)": 32}
{"compound": "CO/N=C(\\C(=O)N[C@@H]1C(=O)N2C(C(=O)[O-])=C(C[N+]3(C)CCCC3)CS[C@H]12)c1csc(N)n1", "target-or-system": "Burkholderia sp.", "prefix-operator": "=", "MIC50 (µg/mL)": 8}
{"compound": "CC1(C)[C@H](NC(=O)/C(=N\\OCc2cc(=O)c(O)cn2O)c2csc(N)n2)C(=O)N1OS(=O)(=O)O (stereo in doubt)", "target-or-system": "Burkholderia sp.", "prefix-operator": "≤", "MIC50 (µg/mL)": 0.06}
{"compound": "CC(C)(O/N=C(\\C(=O)N[C@@H]1C(=O)N2C(C(=O)[O-])=C(C[n+]3ccccc3)CS[C@H]12)c1csc(N)n1)C(=O)O", "target-or-system": "Burkholderia sp.", "prefix-operator": "=", "MIC50 (µg/mL)": 2}
{"compound": "C[C@@H](O)[C@H]1C(=O)N2C(C(=O)O)=C(S[C@@H]3CN[C@H](C(=O)N(C)C)C3)[C@H](C)[C@H]12", "target-or-system": "Burkholderia sp.", "prefix-operator": "=", "MIC50 (µg/mL)": 2}

###

# Test system: Escherichia coli
# assay-notes: Antimicrobial activity against Escherichia coli by broth dilution method
# Type: functional

{"compound": "CC1(C)[C@H](NC(=O)/C(=N\\OCc2cc(=O)c(O)cn2O)c2csc(N)n2)C(=O)N1OS(=O)(=O)O (stereo in doubt)", "MIC90": "> 32 µg/mL"}
{"compound": "CO/N=C(\\C(=O)N[C@@H]1C(=O)N2C(C(=O)[O-])=C(C[N+]3(C)CCCC3)CS[C@H]12)c1csc(N)n1", "MIC90": "> 32 µg/mL"}
{"compound": "C[C@@H](O)[C@H]1C(=O)N2C(C(=O)O)=C(SCCNC=N)C[C@H]12 [IMIPENEM ANHYDROUS]", "MIC90": "0.5 µg/mL"}
{"compound": "C[C@@H](O)[C@H]1C(=O)N2C(C(=O)O)=C(S[C@@H]3CN[C@H](C(=O)N(C)C)C3)[C@H](C)[C@H]12", "MIC90": "0.5 µg/mL"}
{"compound": "C[C@H]1[C@H](NC(=O)/C(=N\\OC(C)(C)C(=O)O)c2csc(N)n2)C(=O)N1S(=O)(=O)O", "MIC90": "> 32 µg/mL"}
{"compound": "CC(C)(O/N=C(\\C(=O)N[C@@H]1C(=O)N2C(C(=O)[O-])=C(C[n+]3ccccc3)CS[C@H]12)c1csc(N)n1)C(=O)O", "MIC90": "> 32 µg/mL"}

###

# assay-notes: Inhibition of beta-lactamase TEM-3
pIC50: −log10 of the molar value.
metric: pIC50

{"compound": "CC1(C)[C@H](NC(=O)/C(=N\\OCc2cc(=O)c(O)cn2O)c2csc(N)n2)C(=O)N1OS(=O)(=O)O (stereo in doubt)", "metric": "pIC50", "experimental-value": 5.34}

###

# System: Pseudomonas aeruginosa
# assay-notes: Antimicrobial activity against Pseudomonas aeruginosa BA(C1-106) selected after 25 ug/ml of compound exposure by broth dilution method
# Type: functional
The entries below come with measured MIC values attached.

{"compound": "C[C@@H](O)[C@H]1C(=O)N2C(C(=O)O)=C(SCCNC=N)C[C@H]12 [IMIPENEM ANHYDROUS]", "units-symbol": "µg/mL", "MIC": 1}
{"compound": "C[C@@H](O)[C@H]1C(=O)N2C(C(=O)O)=C(S[C@@H]3CN[C@H](C(=O)N(C)C)C3)[C@H](C)[C@H]12", "units-symbol": "µg/mL", "MIC": 1}
{"compound": "CC1(C)[C@H](NC(=O)/C(=N\\OCc2cc(=O)c(O)cn2O)c2csc(N)n2)C(=O)N1OS(=O)(=O)O (stereo in doubt)", "units-symbol": "µg/mL", "MIC": 16}
{"compound": "CC(C)(O/N=C(\\C(=O)N[C@@H]1C(=O)N2C(C(=O)[O-])=C(C[n+]3ccccc3)CS[C@H]12)c1csc(N)n1)C(=O)O", "units-symbol": "µg/mL", "MIC": 16}

###

# collection of IC50 values tested on AmpC (Escherichia coli, UniProt Q83TT7)
# Sequence (Q83TT7 whole entry): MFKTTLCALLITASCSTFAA

{"compound": "CC1(C)[C@H](NC(=O)/C(=N\\OCc2cc(=O)c(O)cn2O)c2csc(N)n2)C(=O)N1OS(=O)(=O)O (stereo in doubt)", "units-symbol": "µM", "IC50": 0.5}
{"compound": "C[C@H]1[C@H](NC(=O)/C(=N\\OC(C)(C)C(=O)O)c2csc(N)n2)C(=O)N1S(=O)(=O)O", "units-symbol": "µM", "IC50": 0.06}

###

# Test system: Pseudomonas aeruginosa
# assay-notes: Antimicrobial activity against Pseudomonas aeruginosa BA by broth dilution method
# Type: functional
# test-parameters: Pseudomonas aeruginosa, BA; read-out: MIC
The entries below come with measured MIC values attached.

{"compound": "C[C@@H](O)[C@H]1C(=O)N2C(C(=O)O)=C(S[C@@H]3CN[C@H](C(=O)N(C)C)C3)[C@H](C)[C@H]12", "MIC": "1 µg/mL"}
{"compound": "CC(C)(O/N=C(\\C(=O)N[C@@H]1C(=O)N2C(C(=O)[O-])=C(C[n+]3ccccc3)CS[C@H]12)c1csc(N)n1)C(=O)O", "MIC": "2 µg/mL"}
{"compound": "C[C@@H](O)[C@H]1C(=O)N2C(C(=O)O)=C(SCCNC=N)C[C@H]12 [IMIPENEM ANHYDROUS]", "MIC": "1 µg/mL"}
{"compound": "CC1(C)[C@H](NC(=O)/C(=N\\OCc2cc(=O)c(O)cn2O)c2csc(N)n2)C(=O)N1OS(=O)(=O)O (stereo in doubt)", "MIC": "1 µg/mL"}
